Please provide measured Population Pyknosed Nuclei (%) for the entries that follow.
tested on: HEK-293T; test: Multiplex assay against HEK293T; type: toxicity, cell-based; settings: human, 24 h, 10 µM, compound concentration 10 uM, replicate 2
One number for each entry, in %.

Worked cases, Population Pyknosed Nuclei (%) given:
COMPOUND | Population Pyknosed Nuclei (%)
O=c1nc2[nH]c3ccccc3nc-2c(=O)[nH]1 | 17
S=C(NCCCc1c[nH]cn1)NCCCN(Cc1ccc(Cl)c(Cl)c1)c1ccc(Br)cn1 | 23
CCCCCCNC(=O)Nc1ccc(S(=O)(=O)Nc2ccc(CCNC[C@H](O)COc3ccc(O)cc3)cc2)cc1 | 9
CN(C)C(=O)Cn1cc(-c2ccc(-c3nnc4ccccn34)cc2)cn1 | 7
Cc1cc(-c2ccc3c(c2)CC[C@H]3N2CC3(CCN(C(=O)Cc4cn5cc(C)sc5n4)CC3)C2)ncn1 | 13
CCn1c(-c2nc3cc(C(=O)N4CCCC(N)C4)ccc3n2C)cc2ccccc21.Cl (configuration not stated) | 13

Now look at this entry.
Task: State the recorded Population Pyknosed Nuclei (%) for this entry: CN1CCN2c3ccccc3Cc3ccccc3C2C1.Cl (configuration not stated) [MIANSERIN HYDROCHLORIDE]
Output: 10

----------
Assignment: determine reported Population Healthy Nuclei (%) for the given compounds.
tested on: U2OS; assay: Multiplex assay against U2OS; format: toxicity, cell-based; conditions: human, 48 h, 10 µM, compound concentration 10 uM, replicate 2
Numbers only, in %.

Some entries whose results are on file:
COMPOUND | TARGET DESC | OBSERVED PROPERTY | RECORDED NUMBER
COCCn1c(C)c(C)s/c1=N\C(=O)C1C(C)(C)C1(C)C | U2OS | Population Healthy Nuclei (%) | 71
COc1cc(Nc2ncc3c(n2)-c2ccc(Cl)cc2C(c2c(F)cccc2OC)=NC3)ccc1C(=O)O [ALISERTIB] | U2OS | Population Healthy Nuclei (%) | 70
CC(C)(C)c1ccc(CSc2cnn(C(C)(C)C)c(=O)c2Cl)cc1 [PYRIDABEN] | U2OS | Population Healthy Nuclei (%) | 70

Lab note: next compound to report on.
Task: # lookup: Population Healthy Nuclei (%) of Cc1cc(NC(=O)NCCN2CCC(O)(Cc3ccccc3)CC2)c2ccccc2n1 [PALOSURAN]
Output: 72

----------
Please respond with reported Population Pyknosed Nuclei (%) for every item in the list.
system: Fibroblast; experiment: Multiplex assay against human fibroblast; assay type: toxicity, cell-based; settings: 24 h, 10 µM, compound concentration 10 uM, replicate 1
Answer shape: numeric part, then the unit.

COMPOUND | RESULT
COc1ccc2[nH]c(I)c(CCNC(C)=O)c2c1 | 24%

# return Population Pyknosed Nuclei (%) for each item in the list
1. Nc1nc(CC(=O)Nc2ccc(CCNC[C@H](O)c3ccccc3)cc2)cs1
2. CC(C)(C)c1ccc(CSc2cnn(C(C)(C)C)c(=O)c2Cl)cc1
3. CN1CCC(C(=O)c2cccc(NC(=O)c3c(F)cc(F)cc3F)n2)CC1
4. COc1c(Nc2ccc(S(C)(=O)=O)nc2C)ncnc1OC1CCN(C(=O)OC(C)C)CC1
5. Cc1ccc(OCC(O)C(C)NC(C)C)c2c1CCC2.Cl (stereo not given)
6. CCCCC[C@H](O)/C=C/[C@H]1[C@H](O)CC(=O)[C@@H]1CCCCCCC(=O)O

Output:
["8%", "23%", "14%", "18%", "11%", "15%"]
